These entries and their values trace back to patent US20080287374A1.

Tested on: A549/SN-38-4 cell line
TEST NAME: Effect of flavonoid in overcoming anticancer drug (SN-38) resistance of A549/SN-38 cell line
Type: cell-based, human
ASSAY CONDITIONS: concentration of flavonoid for 50% reduction of relative resistance value to SN-38; A549/SN-38-4, 48 hours
TEST READOUT: Resistance overcoming effect EC50 (µg/mL)

(P) CC(C)=CCc1c2c(c(O)c3c1OC(c1ccc(O)cc1)CC3=O)C=CC(C)(C)O2 (stereo not drawn)
(Q) COc1cc2oc(-c3ccc(OC4O[C@H](CO)[C@@H](O)[C@H](O)[C@H]4O)cc3)cc(=O)c2c(O)c1OC (stereo partly drawn)
IN: Kindly compare P with Q and tell me which has the lower Resistance overcoming effect EC50 figure. Returns: label corresponding to the selected item.
OUT: P
(P: 0.067 µg/mL, Q: 0.14 µg/mL)
